- SYSTEM: Crimean-Congo hemorrhagic fever virus L protein viral ovarian tumor (vOTU) protease domain
- ASSAY NAME: CCHFV vOTU protease inhibitor potency, dose response, biochemical, fluorescence, Pep-AMC substrate (AID 720578)
- EXPERIMENTAL SETUP: recombinant CCHFV vOTU, Pep-AMC fluorescence cleavage
Activity calls are given as the source filed them. The rule behind the calls is not given here.
OBSERVABLE: IC50

# annotated cases, reported IC50 shown
Write down IC50 measured for item O=C1OC(Nc2cc(Br)cc3cccnc23)c2ccccc21 (stereo unspecified)
5.23 µM

Please report the measured IC50 for Cc1cnc(C2OCCO2)c2cccc(N)c12
2.56 µM

Determine from records and report IC50 for CN1/C(=C\C=C2C(=O)NC(=O)NC2=O)C(C)(C)c2ccccc21
inactive

Complete the entry with IC50 for NC(=S)N=Nc1c(O)cc(O)c2[nH]c(=O)ccc12
9.78 µM

Look up IC50 of COc1ccc(N2C(=O)[C@@H]3[C@H](C2=O)[C@H]2c4ccccc4C=CN2[C@@H]3C(C)=O)cc1 and report it.
inactive

Proceeding to the next molecule to report its IC50.
# return recorded IC50 for entry COC(CNC(=O)c1ccc2c3c(onc13)-c1ccccc1C2=O)OC
3.5 µM

###

- SYSTEM: Crimean-Congo hemorrhagic fever virus L protein viral ovarian tumor (vOTU) protease domain
- ASSAY NAME: CCHFV vOTU protease inhibitor potency, dose response, biochemical, fluorescence, Pep-AMC substrate (AID 720578)
- EXPERIMENTAL SETUP: recombinant CCHFV vOTU, Pep-AMC fluorescence cleavage
Calls of active or inactive are those of the source. The rule behind the calls is not given here.
Answer with one of the outcomes label 1 (active), label 0 (inactive)

// known answers, use as guide
Any idea what this test logged for O=C1Cc2ccccc2C(=O)N1Cc1ccccc1 ?
label 1

Which result was noted for this molecule in the test: CC(=O)N(/N=C1\Sc2ccccc2C1=O)c1cccc(C)c1
label 0

Hey, what did the test say about COc1ccc(S(=O)(=O)/N=C2\C=C(Nc3ccc(O)cc3)C(=O)c3ccccc32)cc1 ?
label 1

Others:
Dear colleague, could you share the recorded outcome for O=C(NC(=S)Nc1ccccc1N1CCCC1)c1ccc(F)cc1 when you have a moment?
label 0

Which outcome was assigned to O=C1C(Nc2cccc(O)c2)=C(N2CCCCC2)C(=O)c2ccccc21 in this test?
label 1

// param item: COc1ccc(/C=N/NC(=O)c2nn(-c3ccccc3)c(=O)c3c(N)scc23)cc1 ; yields the recorded call
label 1

// outcome(item) with item = C=CCN(CC=C)C(=S)Nc1ccc2nsnc2c1
label 0

Value source: PubChem BioAssay AID720578
